Test system: MAGI-CCR5 cells viability, CellTiter-Glo ATP luminescence
Assay: MAGI-CCR5 and HeLa-R5-16 cytotoxicity, dose response, cytotoxicity control for HIV-1 fusion inhibitor project, cell-based, MAGI and MAGI-HeLa co-culture (AID 2286);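 further: cells exposed to compound for at least 64 h before ATP readout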
Details: measured here: MAGI + HeLa-R5-16 co-culture viability
METRIC_NAME: CC50 (µM)

| CHEMICAL_SMILES | METRIC_NAME | CMP | REPORTED_MEASUREMENT |
| --- | --- | --- | --- |
| O=C(NC(=S)Nc1ccccc1C(=O)O)c1ccc(-c2ccc(Br)cc2)o1 | CC50 | > | 50 |
| Cc1cccc(C)c1-n1cccc1/C=C1\SC(=S)N(c2cccc(C(=O)O)c2)C1=O | CC50 | > | 50 |
| O=c1cc(-c2ccccc2Cl)oc2c(NS(=O)(=O)c3cc(Cl)cc(Cl)c3O)ccc(O)c12 | CC50 | = | 15.6 |
| COc1ccc(-c2csc(NC(=O)c3ccccc3NS(=O)(=O)c3ccc(C)cc3)n2)cc1 | CC50 | = | 10.9 |
| CC(/C=C1\SC(=S)N(CCCC(=O)Nc2ccc(C(=O)O)cc2)C1=O)=C\c1ccccc1 | CC50 | > | 50 |
